test_summary: chemical genetic growth profiling, strain panel (AID 1159580);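 note: tested at 20 µM; growth read once vehicle control cultures reached saturation at 30 °C; 1 = growth at the plate median or of vehicle wells; lower values mean less growth of the strain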
condition_parameters: S. cerevisiae deletion strains, growth OD, locus YGL078C, strain dbp3, active compounds read low
Among all 5,500 compounds or so, about 2,000 (36%) were called active. Inconclusive results (about 18%) are left out. The list shows a part of the results.

| compound | normalized growth |
| --- | --- |
| O=C(O)c1cc2cc(Cc3cccnc3)ccc2o1 | 0.991 |
| CC(C)NC[C@H](O)COc1cccc2ccccc12 | 1.01 |
| Nc1ccc(N=Nc2ccccc2)c(N)n1 | 0.937 |
| C[C@@H]1C(=O)OC2[C@H](O)C34[C@@H]5OC(=O)[C@@]3(O[C@@H]3OC(=O)[C@H](O)[C@@]34[C@H](C(C)(C)C)[C@H]5O)[C@]21O (stereo not given in full) | 1.01 |
| Nc1ccn(C2O[C@H](CO)[C@@H](O)[C@@H]2O)c(=O)n1 (stereo not given in full) | 0.995 |

====

test_summary: chemical genetic growth profiling, strain panel (AID 1159580);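 note: tested at 20 µM; growth read once vehicle control cultures reached saturation at 30 °C; 1 = growth at the plate median or of vehicle wells; lower values mean less growth of the strain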
condition_parameters: S. cerevisiae deletion strains, growth OD, locus YDL017W, strain CDC7
Among all 5,500 compounds or so, about 2,000 (36%) were called active. About 18% were inconclusive and are not listed. Rule as the data show it: active = normalized growth mostly below about 0.91 (no sharp cut-off); inconclusive = no clear call, values can overlap the other calls; inactive = mostly above about 0.92. The list shows a part of the results.
Outcomes: 1 = active, 0 = inactive

| molecule | assigned_category |
| --- | --- |
| O=C(Nc1ccc(OC(F)(F)F)cc1)N1CCN(c2nc(-c3ccccc3)ns2)CC1 | 0 |
| CC(C)(CCC(C)(C)N1C(=O)c2cccc3cccc(c23)C1=O)N1C(=O)c2cccc3cccc(c23)C1=O | 1 |
| Cc1onc(-c2c(F)cccc2Cl)c1C(=O)ON=C1C2CC3CC(C2)CC1C3 | 1 |
| O=C(NNc1ccc(I)cc1)c1cc(Cl)cc(Cl)c1 | 0 |
| Cc1c(C(=O)N(Cc2ccccc2)Cc2cccs2)cnn1-c1ccc(Cl)cc1 | 0 |
| CC1(C)OC(=O)C(=Cc2cccn2-c2ccc(OC(F)(F)F)cc2)C(=O)O1 | 0 |
| FC(F)(F)c1cccc(-n2c(CSCc3cccc4ccccc34)n[nH]c2=S)c1 | 0 |
| O=[N+]([O-])c1ccc2oc(C(O)c3cccc(Cl)c3)cc2c1 (stereo not given) | 0 |
| Cc1onc(-c2c(Cl)cccc2Cl)c1C(=O)NC(C)(C)CC(C)(C)C | 0 |
| O=C(Nc1ccc(OC(F)(F)F)cc1)OC1CN(C(c2ccccc2)c2ccccc2)C1 | 0 |
| O=c1c2ccccc2[nH]c(=S)n1-c1cccc(C(F)(F)F)c1 | 1 |
| CC(=O)Nc1ccc(S(=O)(=O)Nc2ccccc2Oc2ccc(Cl)cc2Cl)cc1 | 0 |
| Cc1onc(-c2c(F)cccc2Cl)c1C(=O)NNc1cc(Cl)cc(Cl)c1 | 0 |
| Cc1cccc(NC(=S)NNC(=O)CSCc2cccc3ccccc23)c1 | 0 |
| CCc1ccn2cc(Nc3ccccc3Cl)nc2c1 | 0 |
| O=[N+]([O-])c1ccc2oc(C(O)c3ccc(-c4ccccc4)cc3)cc2c1 (stereo not given) | 0 |
| Cc1c(C(=S)Nc2ccccc2)sc2ccccc12 | 0 |
| CCCCCCCCCCCC(=O)NOC(=O)c1c(-c2c(Cl)cccc2Cl)noc1C | 0 |
| CC1(C)OC(=O)C(=Cc2cccn2-c2ccc(C(F)(F)F)cc2)C(=O)O1 | 0 |
| OC(CN1CCN(c2nc3ccc(Cl)cc3s2)CC1)Cn1ccc2ccccc21 (stereo not given) | 0 |
